Provenance of the data: paper PMC6572184

Property: viability at 24 h, 0.1 μg/mL; scope: individual molecules
Test Method Notes: MTT reduction cytotoxicity assay
Type: cell-based, mouse
Cond: mouse, L929 cells (mouse fibroblasts), 0.1 μg/mL, read-out: mean percentage of viable cells ± SD
Numeric answer only, unit % assumed.

Past entries and their recorded results:
INSERT INTO results (molecule, recorded_value) VALUES
  ('CC1CC(=O)OC(c2cccc3ccccc23)C1Br (stereo not shown)', 25),
  ('C[C@@H]1CC(=O)O[C@H]1[C@@H](O)c1cccc2ccccc12 (mixture of isomers) [12a]', 19),
  ('CC1CC(=O)OC(c2ccccc2)C1Br (stereo not shown)', 25);

Req: Form field: reported viability at 24 h, 0.1 μg/mL of CC1CC(=O)OC(c2ccccc2)C1Cl (stereo not shown)
Resp: 20

Req: Form field: reported viability at 24 h, 0.1 μg/mL of CC1CC(=O)OC(c2ccccc2)C1I (stereo not shown)
Resp: 23

Req: Form field: reported viability at 24 h, 0.1 μg/mL of C[C@@H]1CC(=O)O[C@H](c2cccc3ccccc23)[C@H]1Cl (relative stereo)
Resp: 17

Req: Form field: reported viability at 24 h, 0.1 μg/mL of C[C@@H]1CC(=O)O[C@@H]1[C@@H](O)c1cccc2ccccc12 [13a]
Resp: 16

====

Tested on: Staphylococcus aureus ATCC 65389
Test Method Notes: Bactericidal activity, CFU counting method
Assay type: cell-based
Cond: S. aureus ATCC 65389; versus control
Readout Type: less CFU/mL (reduction of the number of CFU/mL)

Past entries and their recorded results:
INSERT INTO measurements (compound, recorded_value) VALUES
  ('CC1CC(=O)OC(c2ccc(F)cc2)C1Br (mixture of isomers)', '78–83%'),
  ('CC1CC(=O)OC(c2cccc3ccccc23)C1Br (stereo not drawn) [7a]', '78–83%'),
  ('CC1CC(=O)OC(c2ccc(F)cc2)C1Cl (mixture of isomers)', '83%'),
  ('C[C@@H]1CC(=O)O[C@H](c2cccc3ccccc23)[C@H]1Cl (relative stereo)', '87%');

Req: Form field: reported less CFU/mL (reduction of the number of CFU/mL) of CC1CC(=O)OC(c2cccc3ccccc23)C1Br (mixture of isomers) [8a]
Resp: 83%

Req: Form field: reported less CFU/mL (reduction of the number of CFU/mL) of CC1CC(=O)OC(c2ccccc2)C1Cl (mixture of isomers)
Resp: 78–83%

====

Test Method Notes: MTT reduction cytotoxicity assay
Type: cell-based, human
Cond: human, AGS cells (human gastric adenocarcinoma), 0.1 μg/mL, 24 h, read-out: mean percentage of viable cells ± SD
Property: viability at 24 h, 0.1 μg/mL; scope: individual compounds
Respond with the figure and its unit, in that order.

Past entries and their recorded results:
INSERT INTO assay_data (compound, recorded_value) VALUES
  ('C[C@@H]1CC(=O)O[C@H]1[C@@H](O)c1cccc2ccccc12 (mixture of isomers) [12a]', '39%'),
  ('CC1CC(=O)OC(c2ccccc2)C1I (stereo not shown) [9b]', '54%'),
  ('CC1CC(=O)OC(c2ccccc2)C1Br (stereo not shown) [7b]', '40%'),
  ('C[C@@H]1CC(=O)O[C@H](c2cccc3ccccc23)[C@H]1Cl (relative stereo) [5a]', '54%'),
  ('C[C@@H]1CC(=O)O[C@@H]1[C@@H](O)c1cccc2ccccc12 [13a]', '44%');

Req: Form field: reported viability at 24 h, 0.1 μg/mL of CC1CC(=O)OC(c2cccc3ccccc23)C1Br (stereo not shown) [7a]
Resp: 39%

Req: Form field: reported viability at 24 h, 0.1 μg/mL of CC1CC(=O)OC(c2ccccc2)C1Cl (stereo not shown) [5b]
Resp: 35%
